We begin with a simple list: items and their reported GI50.
system: SK-OV-3; test: NCI tumour cell line growth inhibition, 48 h
Active and inactive are the calls of the source. Cut-off read from the data, not from the text of the source: active = GI50 up to about 1.1 µM and inactive = higher.

Solved entries:
Cc1ccc2c(c1)nc1n2C(c2c(F)cccc2F)SC1 (stereo not given); 52.6 µM (inactive)
CC(=O)c1sc(-c2nc(C)c(C(=O)/C=C\c3ccc(/C=C\C(=O)c4sc(-c5nc(C)c(C(C)=O)s5)nc4C)cc3)s2)nc1C; > 100 µM (inactive)
CCOC(=O)Nc1nc(-c2ccccc2)c(C)s1; > 100 µM (inactive)
O=C(Nc1cccc([N+](=O)[O-])c1)C(=O)C(C(=O)c1ccccc1-c1ccccc1)C1OC(=O)c2ccccc21 (stereo not given); 32.5 µM (inactive)
CCSc1[nH]c(Nc2nc(-c3ccccc3)n(-c3ccccc3)n2)c(C(N)=O)c1C(N)=O; > 10 µM (inactive)
Cn1c(=O)oc2cc(C(O)CN3CCN(Cc4ccc5c(c4)OCO5)CC3)ccc21 (stereo not given); > 100 µM (inactive)

Exam item: Consider the molecule shown here: "c1ccc2[nH]c3nc4ccccc4c-3cc2c1" What is its recorded GI50?
Marked response: 0.839 µM (active)

Exam item: Now the molecule "CC(C)(CO)NC(=O)c1cccs1"
Marked response: > 100 µM (inactive)

Exam item: Now the molecule "[O-][n+]1onc2c1/C(=N/O)CCC2"
Marked response: > 100 µM (inactive)

Exam item: Now the molecule "Cc1cc(C)nc(NS(=O)(=O)c2ccc(NNc3c4ccccc4nc4c(C(=O)Nc5ccc(S(N)(=O)=O)cc5)cccc34)cc2)n1"
Marked response: 47.1 µM (inactive)
